target.system: 120-G564S/320.1
test.description: biotin-ligand binding
assay.metric: Kd
Don't forget the unit after the number, please.

Data request: Fill in: Kd of HB-EGF-biotin (ligand) DLQEADLDLLRVTLSSKPQALATPNKEEHGKRKKKGKGLGKKRDPCLRKYKDFCIHGECKYVKELRAPSCICHPGYHGERCHGLSL is ___
Data returned: 212 pM

Entry source: patent US20100278801A1
